Data origin: paper PMC11388019

molecular target: ΔN LSD1-CoREST (Homo sapiens, UniProt O60341+Q9UKL0); construct: The N terminally truncated (aa 171–852) LSD1 plasmid (pGEX-6P-1-ΔN LSD1); GST (cleaved yes); made in house; host or cells: E. coli Rosetta (DE3) pLysS, co-expression; assay: Horseradish peroxidase (HRP) coupled demethylase assay on 21 a.a. H3K4me2 peptide substrate; type: biochemical; conditions: HRP-coupled assay, 0.3 μM ΔN LSD1-CoREST, H3K4me2 (1-21) peptide 10-60 μM, 50 mM Hepes pH 7.5, 25 °C, competitive fit, N = 2; read-out: inhibition constant Ki (Ki app) on H3K4me2 peptide substrate
pKi: −log10 of the molar value.

- substance: "Ac-GRRDDRRKRAKVEY-NH2 [NLS-p∗]"
  target_under_test: "ΔN LSD1-CoREST (Homo sapiens, UniProt O60341+Q9UKL0)"
  pKi: 4.41
